- procedure summary: NCI Yeast Anticancer Drug Screen. Data for the wt1 strain (AID 149);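 note: 0% = growth of vehicle-treated wt1 cultures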
- experimental conditions: S. cerevisiae wt1 strain (SPY 50644) growth inhibition; at 100.0 µM; stronger effect = higher value
The panel holds about 79,000 compounds, 15% with a hit somewhere; the sample as a whole holds those more often.
recorded endpoint: growth inhibition (%)
Answers are plain numbers, in %.

Examples with answers:
{"columns": ["molecule", "growth inhibition / %"],
 "data": [
  ["COc1cc(C2SCC(=O)N2c2ccc(-c3ccc(-n4c(-c5ccccc5)nc5ccccc5c4=O)cc3)cc2)ccc1O (centres undefined)", -8],
  ["COc1cc(/C=C2\\CCC/C(=C\\c3ccc(O)c(OC)c3)C2=O)ccc1O", 15],
  ["CCCCCCCCCCCCCCCCCC(=O)NCCCN(C)C", 97],
  ["CN1C(=O)c2ccc3ccccc3c2C1=O", 25],
  ["COc1oc(C(=O)NC2CCCCC2)c(-c2ccc(Cl)cc2)c1S(=O)(=O)c1ccccc1", 87]
]}

Give growth inhibition for each of the items listed below.
1. Cc1c(C)c(C)c(CSC(=N)N)c(C)c1C
2. CCN(CC)Cc1cc(Nc2c3ccccc3nc3c2[nH]c2ccccc23)cc(CN(CC)CC)c1O
3. Cc1ccc2c(c1)C1(SC(C)C(=O)N1c1ccc(Cl)cc1)C(=O)N2 (centres undefined)
4. CC(O)=NC(Cc1ccc2ccccc2c1)C(O)=NC(Cc1ccc(Cl)cc1)C(O)=NC(Cc1c[nH]c2ccccc12)C(O)=NC(CO)C(O)=NC(Cc1ccc(O)cc1)C(O)=NC(CCCN=C(N)N)C(O)=NC(CC(C)C)C(O)=NC(CCCN=C(N)N)C(=O)N1CCCC1C(O)=NC(C)C(=N)O (centres undefined)
5. CCOC(=O)CC1(C(=O)OCC)c2[nH]c3ccccc3c2CCN1Cc1ccccc1 (centres undefined)
6. CCOC(=O)/C(=C\c1ccc(C#N)cc1)C(C)=O

[out]
[98, 3, 99, -1, 42, 98]

###

Exercise: state measured growth inhibition for each of the molecules provided.
- procedure summary: NCI Yeast Anticancer Drug Screen. Data for the wt1 strain (AID 149);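 note: 0% = growth of vehicle-treated wt1 cultures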
- experimental conditions: S. cerevisiae wt1 strain (SPY 50644) growth inhibition; at 11.0 µM; stronger effect = higher value
Compounds without any hit were thinned out: in the full panel of roughly 79,000, 15% have a hit.
Answers are plain numbers, in %.

Examples with answers:
{"columns": ["molecule", "obs value"],
 "data": [
  ["CCC(C)OC(=O)Nc1ccc(C)c(NC(=O)OC(C)CC)c1 (stereo not given)", -5],
  ["CCOC(=O)[C@H]1Nc2ccc(OC)cc2C2c3ccccc3CC21 (stereo not given in full)", -25],
  ["Oc1ccc(SCc2ccc(NCc3ccccc3)cc2)cc1", -52],
  ["COc1cc([C@@H]2c3cc4c(cc3[C@@H](Nc3ccc(NC(=O)c5cc([N+](=O)[O-])cn5C)cc3)[C@H]3COC(=O)[C@H]23)OCO4)cc(OC)c1O", 26],
  ["Nc1ncnc2c1ncn2C1OC(CO)CC1O (stereo not given)", -4],
  ["Cc1ccc(NC(c2ccccc2)c2ccc3cccnc3c2O)cc1 (stereo not given)", 4],
  ["Cc1cccc(/C=N/NC(=S)N2CCCC2)n1", 12],
  ["C=C1CCC(O)C/C1=C/C=C1\\CCCC2(C)C1CCC2C(C)CCCC(C)C (stereo not given)", -12]
]}

Give growth inhibition for each of the items listed below.
1. CN(C)Cc1cc(N=Nc2ccc(Cl)cc2)ccc1OC(=O)c1ccccc1
2. NC(=S)NC(=S)Nc1ccccc1

[out]
[3, -6]

###

- procedure summary: NCI Yeast Anticancer Drug Screen. Data for the mlh1 rad18 strain (AID 175)
- experimental conditions: S. cerevisiae mlh1 rad18 strain growth inhibition; at 50.0 µM (retest, dose inferred, filed as 5.0)
The panel holds about 79,000 compounds, 15% with a hit somewhere; the sample as a whole holds those more often. Activity calls are given as the source filed them. Cut-off read from the data, not from the text of the source: active = growth inhibition above about 70%; inactive = the rest.
Write down the outcome that applies. Available outcomes: active, inactive

Please review the entries below; each comes with its answer.
{"columns": ["molecule smiles", "cat"],
 "data": [
  ["Cc1cc2cc3cc(C)c(N)cc3nc2cc1N", "active"],
  ["CC(=O)ON=C1C=CC(=C(C#N)c2ccc(Cl)cc2)C=C1", "active"],
  ["CC1=C(SCc2ccccc2)C(=O)c2ccccc2C1=O", "active"]
]}

Next item in the queue.
[in] In this assay, the call recorded for CCN(CC)Cc1cc(Nc2c3ccccc3nc3c2[nH]c2ccccc23)cc(CN(CC)CC)c1O was what?
[out] inactive

###

- procedure summary: NCI Yeast Anticancer Drug Screen. Data for the rad50 strain (AID 155);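 note: 0% = growth of vehicle-only cultures of the same strain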
- experimental conditions: S. cerevisiae rad50 strain growth inhibition; at 1.2 µM; stronger effect = higher value
About 79,000 compounds went through this panel and 15% of them were active in at least one assay; those are over-represented in the sample as a whole.
Exercise: state measured growth inhibition for each of the molecules provided.
Numbers only, in %.

Examples with answers:
{"columns": ["molecule", "unit annotation", "growth inhibition"],
 "data": [
  ["CCN(CC)CCN(C)CCc1ccc(Br)cc1", "%", 7],
  ["O=C1C=C(c2ccccc2)OC1(c1ccccc1)N1CCOCC1 (configuration not stated)", "%", 1],
  ["O=C(/C=C(/c1ccccc1)N1CCCCC1)c1ccccc1", "%", -1],
  ["N#CC(=Nc1ccccc1F)Nc1ccccc1F", "%", 0],
  ["CCCC/C=C/C(C)(C(=O)OCC)C(=O)OCC", "%", -6]
]}

Give growth inhibition for each of the items listed below.
1. CC(C)(C)c1ccc(NS(=O)(=O)c2ccc(N)cc2)cc1
2. Oc1ccc(SCc2ccc(NCc3ccccc3)cc2)cc1
3. COc1ccc(NC(=O)CC2SC(=Nc3ccccc3C)NC2=O)c([N+](=O)[O-])c1 (configuration not stated)
4. O=C(O)c1cc2ccc(Cl)cc2c(O)c1C1=CCCCC1
5. Clc1ccc2c(c1)N(CCCN1CCCC13CCCCC3)c1ccccc1S2
6. Cc1ccc(S/C(=C\C(=O)O)c2ccccc2)cc1

[out]
4
0
1
-7
4
2

Quick note, growth inhibition for Cc1cc(C)nc(NS(=O)(=O)c2ccc(Nc3c4ccccc4nc4c(C(=O)NCCO)cccc34)cc2)n1 landed at -1

###

Exercise: state measured growth inhibition for each of the molecules provided.
- procedure summary: NCI Yeast Anticancer Drug Screen. Data for the mec2-1 strain (AID 157)
- experimental conditions: S. cerevisiae mec2-1 strain, at 50.0 µM, stronger effect = higher value
About 79,000 compounds went through this panel and 15% of them were active in at least one assay; those are over-represented in the sample as a whole. Active and inactive are the calls of the source. No stated cut-off is given here; in the data, active means growth inhibition above about 70%; inactive means the rest.

Give growth inhibition for each of the items listed below.
1. COc1cc2ccnc(-c3c4ccccc4c(N)c4c(OC)c(OC)ccc34)c2cc1OC
2. CCN(CC)CCN(C)CCc1ccc(Br)cc1
3. O=[N+]([O-])c1cc(F)c(F)cc1Sc1cc(F)c(F)cc1[N+](=O)[O-]

[out]
["-2.3% (inactive)", "33.6% (inactive)", "98.5% (active)"]

###

- procedure summary: NCI Yeast Anticancer Drug Screen. Data for the bub3 strain (AID 167)
- experimental conditions: S. cerevisiae bub3 mutant strain, at 1.2 µM, stronger effect = higher value
The panel holds about 79,000 compounds, 15% with a hit somewhere; the sample as a whole holds those more often.
recorded endpoint: growth inhibition (%)
Give bare numbers, in %.

Examples with answers:
{"columns": ["compound", "obs value"],
 "data": [
  ["CCC(C)OC(=O)Nc1ccc(C)c(NC(=O)OC(C)CC)c1 (centres undefined)", -3],
  ["COc1cc2cc3c4cc(OC)c(OC)cc4cc[n+]3c(C)c2cc1OC", 0],
  ["Cc1nc2c(Br)cc(Br)cc2c(=O)n1-c1ccccc1NC1OCC(O)C(O)C1O (centres undefined)", 11]
]}

Give growth inhibition for each of the items listed below.
1. CSc1nnc(SC)nn1
2. O=C1C(=O)c2ccccc2C(O)=C1C(C1=C(O)c2ccccc2C(=O)C1=O)c1ccc(Cl)cc1
3. Cc1ccc(CC2(OCCN(C)C)CCC(C(C)(C)C)CC2)cc1 (centres undefined)
4. Oc1ccc2c(c1)C(O)CCCC2 (centres undefined)

[out]
[11, -1, -23, -9]

Give growth inhibition for each of the items listed below.
1. O=[n+]1c2ccccc2n([O-])c2cc(Br)ccc21
2. NC(=O)C(=O)NNc1ccccc1
3. CNC(=O)OCc1c(COC(=O)NC)c(-c2ccc(Cl)cc2)n2c1CCC2
4. O=c1ssc(=Nc2ccccc2)n1-c1ccccc1

[out]
42
-3
-53
-5

Give growth inhibition for each of the items listed below.
1. CC1=CC(=C(c2ccc(N)cc2)c2ccc(N)cc2)C=CC1=N
2. CCCCN(CCCC)CCC(O)c1cc2c(Cl)cc(Cl)cc2c2cc(C(F)(F)F)ccc12 (centres undefined)
3. CS(=O)(=O)SCc1ccc([N+](=O)[O-])cc1

[out]
1. -12
2. 10
3. 6

Give growth inhibition for each of the items listed below.
1. CC(=O)Nc1ccc2c(c1)-c1ccccc1C2=O
2. CCN(CC)CCNc1ccc([N+](=O)[O-])c2nc3ccccc3c(N)c12
3. Nc1nc2ccc(NCc3ccc(C(=O)NC(CCC(=O)O)C(=O)O)cc3)cc2c(=O)[nH]1 (centres undefined)
4. O=Cc1ccc2c(c1)C(=O)c1ccccc1C2=O
5. COc1ccc(C/C=N/Nc2ccc([N+](=O)[O-])cc2)cc1OC

[out]
0
-15
-7
-1
3
